target.or.system: T1, Human His-GDF15: HIS-tagged human GDF15 (human, UniProt Q99988 195-308)
T1 construct: not shown: His tag
T1 sequence: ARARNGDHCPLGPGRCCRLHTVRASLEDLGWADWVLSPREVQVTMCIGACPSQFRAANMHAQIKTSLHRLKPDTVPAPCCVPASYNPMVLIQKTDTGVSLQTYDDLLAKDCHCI
procedure.details: Biacore SPR, IgG captured via anti-human Fc, GDF15 in flow
quantity.name: kon (M⁻¹ s⁻¹)
Respond with the bare value in M⁻¹ s⁻¹.

{"columns": ["binder", "quantity.name", "unit.name", "obs.value"],
 "data": [
  ["ABGDF15-A (antibody, human IgG1, kappa, V domains shown, captured through anti-human Fc in the Biacore assay) VH: EVQLVQSGAEVKKPGESLKISCKGSGYSFTDYWISWVRQMPGKGLEWMGIIDPSGSYTIYSPSFQGQVTISADKSISTAYLQWSSLKASDTAMYYCARVSYYGGYFDIWGQGTLVTVSS VL: DIQMTQSPSSLSASVGDRVTITCRASQSISNNLNWYQQKPGKAPKLLIYAASNLQSGVPSRFSGSGSGTDFTLTISSLQPEDFATYYCFQLDHSPFTFGQGTKVEIKR", "kon", "M⁻¹ s⁻¹", "9.42e+07"],
  ["ABGDF15-G (antibody, human IgG1, kappa, V domains shown, captured through anti-human Fc in the Biacore assay) VH: QVQLVQSGAEVKKPGSSVKVSCKASGGTFSSHYINWVRQAPGQGLEWMGGIIPAFGGANYAQKFQGRVTITADESTSTAYMELSSLRSEDTAVYYCARFGSVYVSRYSSYYHMDVWGQGTLVTVSS VL: DIQMTQSPSSLSASVGDRVTITCRASQTIYRSLAWYQQKPGKAPKLLIYGASILQSGVPSRFSGSGSGTDFTLTISSLQPEDFATYYCLQRYTSPFTFGQGTKVEIKR", "kon", "M⁻¹ s⁻¹", "3.9e+06"]
]}

Lab book: kon of ABGDF15-F (antibody, human IgG1, lambda, V domains shown, captured through anti-human Fc in the Biacore assay) VH: EVQLVQSGAEVKKPGESLKISCKGSGYSFTSYWIGWVRQMPGKGLEWMGVIDPSGSYTIYSPSFQGQVTISADKSISTAYLQWSSLKASDTAMYYCARYGRYGTYFDYWGQGTLVTVSS VL: QSVLTQPPSVSGAPGQRVTISCSGSSSNIGVLYVNWYQQLPGTAPKLLIYSNDNRPSGVPDRFSGSKSGTSASLAITGLQAEDEADYYCQSWDSSSNYVFGGGTKLTVLG noted as 4.19e+07
